Attribution: ChEMBL document CHEMBL3872253

# METHOD NOTES: Growth inhibition of human HFF1 cells at 10 uM after 72 hrs by MTT assay
# Assay type: cell-based, HFF-1
The label depends only on inhibition at 72 h, 10 µM: true (1) if it is at least 40%, false (0) if it is smaller.

Exercise: Please indicate if the recorded inhibition at 72 h, 10 µM for `Nc1nc(Cl)c2c(Cc3ccccc3)cn(Cc3cc4c(cc3Br)OCO4)c2n1` meets or exceeds 40%.
Solution: false (0)

Exercise: Try this compound too: `Nc1nc(Cl)c2c(Cc3ccccc3)cn(Cc3cc4c(cc3I)OCO4)c2n1`
Solution: false (0)

Exercise: How about this compound: `C=CCNC1=C2C[C@@H](C)C[C@H](OC)[C@H](O)[C@@H](C)/C=C(\C)[C@H](OC(N)=O)[C@@H](OC)/C=C\C=C(/C)C(=O)NC(=CC1=O)C2=O`
Solution: true (1)

Exercise: And `Nc1nc(Cl)c2c(Cc3ccccc3)cn(Cc3ccc4c(c3)OCO4)c2n1` ?
Solution: false (0)

Exercise: Another compound to check: `COc1ccc(Cc2cn(Cc3ncc(C)c(OC)c3C)c3nc(N)nc(Cl)c23)cc1`
Solution: false (0)

Exercise: Same question, `COc1c(C)cnc(Cn2cnc3c(Cl)nc(N)nc32)c1C` this time
Solution: true (1)

---

This section lists IC50 readings for Heat shock protein HSP 90-alpha (Homo sapiens, UniProt P07900).
Quick note: give the figure in µM, leave out the unit.

Exercise: Request the reported IC50 associated with `Nc1nc(Cl)c2c(Cc3ccccc3)cn(Cc3cc4c(cc3Br)OCO4)c2n1`
Solution: 0.65

Exercise: Thanks! And `Nc1nc(Cl)c2c(Cc3ccccc3)cn(Cc3cc4c(cc3I)OCO4)c2n1` ?
Solution: 0.75

Exercise: Try this molecule next: `COc1c(C)cnc(Cn2cc(Cc3ccccc3)c3c(Cl)nc(N)nc32)c1C`
Solution: 0.036

Exercise: Try the molecule `COc1ccc(Cc2cn(Cc3ncc(C)c(OC)c3C)c3nc(N)nc(Cl)c23)cc1`
Solution: 0.094
